System: rLUJV/ZsG
Assay: microbe, parasite or virus in culture
Format: cell-based, Lujo virus
Conditions: Mammarenavirus lujoense, Huh-7; 5000 nM; read-out: Relative ZsG (%) Mean
Please go through the items and note down their activity at 5 µM.
Kindly provide the numeric value in % only, without the unit symbol.

Q. State measured activity at 5 µM of the compound C[C@@H](c1nc(-c2ccc(C#N)cc2)cs1)[C@](O)(Cn1cncn1)c1cc(F)ccc1F [Isavucanazole] with rLUJV/ZsG.
A. 34

Q. State measured activity at 5 µM of the compound O=c1[nH]c(=O)n([C@@H]2O[C@H](CO)[C@@H](O)[C@H]2O)cc1F [5-fluorouridine] with rLUJV/ZsG.
A. 19

Q. State measured activity at 5 µM of the compound Nc1ncnc2c([C@@H]3N[C@H](CO)[C@@H](O)[C@H]3O)c[nH]c12 [BCX-4430] with rLUJV/ZsG.
A. 99

Q. State measured activity at 5 µM of the compound NC(=O)c1ncn([C@@H]2O[C@H](CO)[C@@H](O)[C@H]2O)n1 [Ribavirin] with rLUJV/ZsG.
A. 63

Q. State measured activity at 5 µM of the compound Cc1cn([C@@H]2O[C@H](CO)[C@@H](O)[C@H]2O)c(=O)nc1N [5-methylcytidine] with rLUJV/ZsG.
A. 108

Q. State measured activity at 5 µM of the compound CO[C@@H]1[C@H](O)[C@@H](CO)O[C@H]1n1ccc(N)nc1=O [2ʹ-O-methylcytidine] with rLUJV/ZsG.
A. 114

Q. State measured activity at 5 µM of the compound O=c1[nH]c(=O)n([C@@H]2O[C@H](CO)[C@@H](O)[C@H]2O)cc1Cl [5-chlorouridine] with rLUJV/ZsG.
A. 103

* * *

System: rLUJV/ZsG
Assay: microbe, parasite or virus in culture
Type: cell-based, Lujo virus
Settings: 5000 nM
parameter: Relative ZsG (%) Mean
Kindly provide the numeric value in % only, without the unit symbol.

Q. State measured Relative ZsG (%) Mean of the compound `COc1ccc(-n2cnc3cc(NCc4ccc(C(C)C)cc4)ccc32)cc1` with rLUJV/ZsG.
A. 91

Q. State measured Relative ZsG (%) Mean of the compound `C#C[C@@]1(O)[C@H](O)[C@@H](CO)O[C@H]1n1ccc2c(N)ncnc21` with rLUJV/ZsG.
A. 136

Q. State measured Relative ZsG (%) Mean of the compound `C[C@@]1(F)[C@H](O)[C@@H](CO)O[C@H]1n1ccc(N)nc1=O` with rLUJV/ZsG.
A. 114

Q. State measured Relative ZsG (%) Mean of the compound `C[C@@]1(O)[C@H](O)[C@@H](CO)O[C@H]1n1ccc2c(N)ncnc21` with rLUJV/ZsG.
A. 92

Q. State measured Relative ZsG (%) Mean of the compound `[N-]=[N+]=N[C@]1(CO)O[C@@H](n2ccc(N)nc2=O)[C@H](O)[C@@H]1O` with rLUJV/ZsG.
A. 103

Q. State measured Relative ZsG (%) Mean of the compound `C[C@H](Cn1cnc2c(N)ncnc21)OCP(=O)(O)O` with rLUJV/ZsG.
A. 96

Q. State measured Relative ZsG (%) Mean of the compound `C[C@@]1(F)[C@H](O)[C@@H](CO)O[C@H]1n1ccc(=O)[nH]c1=O` with rLUJV/ZsG.
A. 128

Q. State measured Relative ZsG (%) Mean of the compound `CCCCCCCCCCCCCCCCn1cc[n+](Cc2ccccc2)c1C.[I-]` with rLUJV/ZsG.
A. 2

Q. State measured Relative ZsG (%) Mean of the compound `[N-]=[N+]=N[C@]1(CO)O[C@@H](n2ccc(N)nc2=O)[C@@H](O)[C@@H]1O` with rLUJV/ZsG.
A. 88

Q. State measured Relative ZsG (%) Mean of the compound Cc1ccc(Nc2nccc(N(C)c3ccc4c(C)n(C)nc4c3)n2)cc1S(N)(=O)=O.Cl [Pazopanib HCl] with rLUJV/ZsG.
A. 24

Q. State measured Relative ZsG (%) Mean of the compound Cl.Fc1ccc([C@@H]2CCNC[C@H]2COc2ccc3c(c2)OCO3)cc1 [Paroxetine HCl] with rLUJV/ZsG.
A. 48

Q. State measured Relative ZsG (%) Mean of the compound `Nc1cccc(-c2cc3c(Oc4cccc(O)c4)ncnc3[nH]2)c1` with rLUJV/ZsG.
A. 13

Q. State measured Relative ZsG (%) Mean of the compound `CC(C)C(=O)OC[C@H]1O[C@@H](n2ccc(N)nc2=O)[C@](C)(F)[C@@H]1OC(=O)C(C)C` with rLUJV/ZsG.
A. 126

Q. State measured Relative ZsG (%) Mean of the compound `CC(C)OC(=O)[C@H](C)N[P@@](=O)(OC[C@H]1O[C@@H](n2ccc(=O)[nH]c2=O)[C@](C)(F)[C@@H]1O)Oc1ccccc1` with rLUJV/ZsG.
A. 124
